tested on: Fibroblast; assay: Multiplex assay against human fibroblast; type: toxicity, cell-based; conditions: 24 h, 10 µM, compound concentration 10 uM, replicate 2
PARAMETER: Total Cell Count
A bare number is all that is needed in reply.

Worked examples, 5 compounds total:
CNc1nc(NCc2ccc(NS(C)(=O)=O)cc2Cl)cc(-c2ccccn2)n1: 71
Cc1nc(-c2cn3c(n2)-c2ccc(-c4cnn(C(C)(C)C(N)=O)c4)cc2OCC3)n(C(C)C)n1: 99
CN(C)C(=O)/C(C#N)=C/c1ccc(-c2nc3cnc4[nH]ccc4c3n2C2CCCCC2)o1: 125
COc1cc(-n2cnc3cc(-c4ccc(Cl)cc4)sc3c2=O)ccc1OCCN1CCCC1: 74
C=CC(=O)Nc1cc2c(Nc3ccc(F)c(Cl)c3)ncnc2cc1OCCCN1CCOCC1.Cl.Cl [CANERTINIB DIHYDROCHLORIDE]: 159

Asked: # Total Cell Count lookup, item `COc1cc2nccc(Oc3ccc(NC(=O)Nc4cc(C)on4)c(Cl)c3)c2cc1OC.O`
Given back: 58

Asked: Could you do the same for CN1CCC[C@@H]1CCO[C@](C)(c1ccccc1)c1ccc(Cl)cc1.O=C(O)/C=C/C(=O)O [CLEMASTINE FUMARATE] , please?
Given back: 47

Asked: Would you mind doing `C=CC(=O)Nc1ccc2ncnc(Nc3ccc(OCc4cccc(F)c4)c(Cl)c3)c2c1.Cc1ccc(S(=O)(=O)O)cc1` as well?
Given back: 77

Asked: Also check `C=CC(=O)Nc1cccc(C(=O)Nc2ccc(Nc3cc(-c4[nH]c(SC)nc4C)ccn3)cc2)c1`
Given back: 95

Asked: Also need COc1cccc([C@@H](C)NCCCc2ccccc2Cl)c1.Cl [TECALCET HYDROCHLORIDE] , thanks.
Given back: 97

Asked: Query `Cc1cc(C)cc(-c2cnc3cc(Cl)c(-c4cccc(O)c4)cc3c2OCCCN)c1` next
Given back: 63

Just for reference, ChEMBL document CHEMBL4689842 is where these values come from.
